System: Respiratory Syncytial Virus
Assay: Respiratory syncytial virus antiviral assay (CPE inhibition, neutral red uptake)
Assay type: cell-based, Respiratory syncytial virus strain Utah 89
Details: human respiratory syncytial virus; CPE inhibition; read-out: Antiviral Activities (EC50) Respiratory Syncitial (CPE)
ASSAY_METRIC: EC50

[[record]]
compound = "CCCc1cc(=O)oc2c(C(=O)CC)c(O)cc(O)c12"
assayed_system = "Respiratory Syncytial Virus"
recorded_measurement = "2 µg/mL"

[[record]]
compound = "CCCc1cc(=O)oc2c(C(=O)C(C)(O)C(C)O)c(O)c3c(c12)OC(C)(C)C=C3 (stereo not shown)"
assayed_system = "Respiratory Syncytial Virus"
recorded_measurement = "50 µg/mL"

[[record]]
compound = "CCCc1cc(=O)oc2cc(OS(=O)(=O)c3ccc(C)cc3)cc(O)c12"
assayed_system = "Respiratory Syncytial Virus"
recorded_measurement = "3 µg/mL"

[[record]]
compound = "CCCc1cc(=O)oc2c3c(c4c(c12)OC(C)(C)[C@H](O)[C@H]4O)O[C@H](C)[C@@H](C)[C@@H]3O"
assayed_system = "Respiratory Syncytial Virus"
recorded_measurement = "> 100 µg/mL"

[[record]]
compound = "CCCc1cc(=O)oc2c(C(=O)CC)c(O)c(C(=O)CC)c(O)c12"
assayed_system = "Respiratory Syncytial Virus"
recorded_measurement = "20 µg/mL"

[[record]]
compound = "CCC/C(=C/C(=O)OC)c1c(O)c2c(c3c1OC(C)(C)[C@H](O)[C@H]3O)O[C@H](C)[C@@H](C)[C@@H]2O"
assayed_system = "Respiratory Syncytial Virus"
recorded_measurement = "100 µg/mL"

[[record]]
compound = "CCCc1cc(=O)oc2cc(OS(=O)(=O)c3ccc(C)cc3)cc(OS(=O)(=O)c3ccc(C)cc3)c12"
assayed_system = "Respiratory Syncytial Virus"
recorded_measurement = "2 µg/mL"

[[record]]
compound = "CCCc1cc(=O)oc2c3c(c4c(c12)OC(C)(C)[C@H](O)[C@H]4OC(=O)c1cccc(Cl)c1)O[C@H](C)[C@@H](C)C3=O"
assayed_system = "Respiratory Syncytial Virus"
recorded_measurement = "3 µg/mL"

[[record]]
compound = "CCCc1cc(=O)oc2c(C(=O)CC)c(O)c3c(c12)OC(C)(C)C=C3"
assayed_system = "Respiratory Syncytial Virus"
recorded_measurement = "20 µg/mL"

[[record]]
compound = "CCCc1cc(=O)oc2c3c(c4c(c12)OC(C)(C)C(O)C4O)O[C@H](C)[C@@H](C)[C@@H]3O (stereo partly shown)"
assayed_system = "Respiratory Syncytial Virus"
recorded_measurement = "> 100 µg/mL"


---

Test system: HBV
Assay: HBV replication in cultures of 2.2.15 cells (HBV DNA blot hybridization)
Type: cell-based
Settings: Hepatitis B virus; read-out: Antiviral Activities (EC50) HBV
ASSAY_METRIC: EC50

[[record]]
molecule = "CCCc1cc(=O)oc2cc(O)cc(O)c12"
assay_metric = "EC50"
recorded_measurement = "> 2.2 µg/mL"

[[record]]
molecule = "CCCc1cc(=O)oc2c3c(c4c(c12)OC(C)(C)C(O)C4O)O[C@H](C)[C@@H](C)[C@@H]3O (stereo partly drawn)"
assay_metric = "EC50"
recorded_measurement = "> 4 µg/mL"

[[record]]
molecule = "CCCc1cc(=O)oc2c(C(=O)CC)c(O)c(C(=O)CC)c(O)c12"
assay_metric = "EC50"
recorded_measurement = "> 3 µg/mL"

[[record]]
molecule = "CCCc1cc(=O)oc2cc(OS(=O)(=O)c3ccc(C)cc3)c3c(c12)OC(C)(C)C=C3"
assay_metric = "EC50"
recorded_measurement = "> 10 µg/mL"

[[record]]
molecule = "CCCc1cc(=O)oc2cc(O)c3c(c12)OC(C)(C)C=C3"
assay_metric = "EC50"
recorded_measurement = "> 10 µg/mL"

[[record]]
molecule = "CCCc1cc(=O)oc2cc(OCC(C)(C)C(=O)O)c3c(c12)OC(C)(C)C=C3"
assay_metric = "EC50"
recorded_measurement = "2.6 µg/mL"


---

System: HBV
Assay: HBV replication in cultures of 2.2.15 cells (HBV DNA blot hybridization)
Type: cell-based
Details: Hepatitis B virus; read-out: Antiviral Activities (EC50) HBV
ASSAY_METRIC: EC50

[[record]]
molecule = "CCCc1cc(=O)oc2c(C(=O)CC)c(O)cc(O)c12"
assayed_system = "HBV"
recorded_measurement = "> 3 µg/mL"

[[record]]
molecule = "CCCc1cc(=O)oc2cc(OC(=O)C(C)(C)C)c3c(c12)OC(C)(C)C=C3"
assayed_system = "HBV"
recorded_measurement = "> 10 µg/mL"

[[record]]
molecule = "CCCc1cc(=O)oc2cc(OC(=O)C(C)(C)C)cc(O)c12 [drawing 26]"
assayed_system = "HBV"
recorded_measurement = "> 3 µg/mL"

[[record]]
molecule = "CCCc1cc(=O)oc2c3c(c4c(c12)OC(C)(C)[C@H](O)[C@H]4OC(=O)c1cccc(Cl)c1)O[C@H](C)[C@@H](C)C3=O"
assayed_system = "HBV"
recorded_measurement = "2.6 µg/mL"

[[record]]
molecule = "CCC/C(=C/C(=O)OC)c1c(O)c2c(c3c1OC(C)(C)[C@H](O)[C@H]3O)O[C@H](C)[C@@H](C)[C@@H]2O"
assayed_system = "HBV"
recorded_measurement = "> 4 µg/mL"

[[record]]
molecule = "CCCc1cc(=O)oc2cc(OCC(C)(C)C(=O)OC)c3c(c12)OC(C)(C)C=C3"
assayed_system = "HBV"
recorded_measurement = "> 4 µg/mL"

[[record]]
molecule = "CCCc1cc(=O)oc2cc(OC(=O)CC)c3c(c12)OC(C)(C)C=C3"
assayed_system = "HBV"
recorded_measurement = "> 10 µg/mL"

[[record]]
molecule = "CCCc1cc(=O)oc2cc(OC(=O)CC)cc(O)c12"
assayed_system = "HBV"
recorded_measurement = "> 3 µg/mL"

[[record]]
molecule = "CCCc1cc(=O)oc2cc(OC(=O)C(C)(C)C)cc(OC(=O)C(C)(C)C)c12"
assayed_system = "HBV"
recorded_measurement = "> 4 µg/mL"

